- Tested on: U251 CNS
- Test Protocol: NCI-60 one-dose screen, 48 h
- Condition Info: 10 µM
About 83,000 compounds went through this panel and 20% of them were active in at least one assay; those are over-represented in the sample as a whole. Calls of active or inactive are those of the source. Rule for the calls: active = growth percent below 10; inactive = the rest.
Labels: 1.0 (active), 0.0 (inactive)

> print(dat)
                                   molecule  discrete.label
1               O=C(CCCCCCC(=O)Nc1cccnc1)NO             0.0
2     CC1CC(=O)OC(C)C1 (stereo unspecified)             0.0
3  Clc1nc(Cl)c2c(ncn2C/C=C\Cn2cnc3c(Cl)nc(Cl)nc32)n1             1.0
4  CO/N=C(/C(=O)NC1C(=O)N2C(C(=O)O)=C(COC(N)=O)CSC12)c1ccco1 (stereo unspecified)             0.0
5               N#Cc1ncc(Br)c(NC2CCCCCC2)n1             0.0
6  COc1ccc2nc3ccccc3c(NCCNCC(C)O)c2c1 (stereo unspecified)             1.0
